system: M14 melanoma; test: NCI tumour cell line growth inhibition, 48 h
TGI values by entry
READOUT_LABEL: TGI

{"MOLECULE": "Cc1ccc2nc(C=Nc3ccc(Cl)cc3)cc(C)c2c1", "READOUT_LABEL": "TGI", "VALUE": "21.1 µM"}
{"MOLECULE": "COC(=O)C1=C(C)C=C(N2CCOCC2)C(C(=O)OC)C1c1ccccc1 (configuration not stated)", "READOUT_LABEL": "TGI", "VALUE": "> 10 µM"}
{"MOLECULE": "CC(=O)OC1CC2C3CCC4C[C@@H](NC(=O)C=C(C)C)CC[C@]4(C)C3CC[C@]2(C)[C@H]1C(C)N(C)C (some centres not stated)", "READOUT_LABEL": "TGI", "VALUE": "3.39 µM"}
{"MOLECULE": "COC(=O)C(Cc1nc2ccccc2nc1C)/C(=N\\NC(N)=O)C(=O)Nc1cccc([N+](=O)[O-])c1 (configuration not stated)", "READOUT_LABEL": "TGI", "VALUE": "> 100 µM"}
{"MOLECULE": "O=C(O)c1ccc(C(=O)O)c(C(=O)Nc2ccc3c(c2)C(=O)c2ccccc2-3)c1", "READOUT_LABEL": "TGI", "VALUE": "> 100 µM"}
{"MOLECULE": "COc1ccc2[nH]c3c(C)c4ccnc(NCCCN(C)CCCNc5ccc6ncn7c8ccccc8c(=O)c5c67)c4c(C)c3c2c1", "READOUT_LABEL": "TGI", "VALUE": "2.48 µM"}
{"MOLECULE": "O=C(O)C12CCCCC1CCCC2 (configuration not stated)", "READOUT_LABEL": "TGI", "VALUE": "> 100 µM"}
{"MOLECULE": "COc1ccc2nc3ccc(OC)cc3c(SCc3ccccc3)c2c1", "READOUT_LABEL": "TGI", "VALUE": "> 50 µM"}
{"MOLECULE": "COC(=O)[C@H](CC(C)C)Nc1c(O)c2c(c(O)c1Cl)C(=O)C=CC2=O", "READOUT_LABEL": "TGI", "VALUE": "> 10 µM"}
{"MOLECULE": "OCCN1CCN2C=C(C3CCCC4N(CCO)CCN34)CCC21 (configuration not stated)", "READOUT_LABEL": "TGI", "VALUE": "> 100 µM"}
{"MOLECULE": "O=C(Nc1ccccc1)c1cc(S(=O)(=O)Nc2nc3ccccc3o2)c(SCc2ccccc2)cc1Cl", "READOUT_LABEL": "TGI", "VALUE": "38.6 µM"}
{"MOLECULE": "COc1ccc(/C=C2\\CCC/C(=C\\c3ccc(O)c(CN4CCCCC4)c3)C2=O)cc1", "READOUT_LABEL": "TGI", "VALUE": "35.3 µM"}
{"MOLECULE": "CCOc1cc2oc(C)cc(=O)c2c(OC)c1C=Nc1ccc(Cn2c(C)nc3ccccc32)cc1", "READOUT_LABEL": "TGI", "VALUE": "> 100 µM"}
{"MOLECULE": "Cn1cc(C2=C(c3cn(C)c4ccccc34)C(=O)NC2=O)c2ccccc21", "READOUT_LABEL": "TGI", "VALUE": "> 25 µM"}
{"MOLECULE": "COc1cc([N+](=O)[O-])c(OC)cc1-c1nc2sc(Cl)cn2c1/C=N/NC1=NCCN1", "READOUT_LABEL": "TGI", "VALUE": "2.8 µM"}
{"MOLECULE": "Cc1ccc(S(=O)c2sccc2C=O)cc1 (configuration not stated)", "READOUT_LABEL": "TGI", "VALUE": "58.1 µM"}
{"MOLECULE": "O=C(COC(=O)c1cccc2c(=O)c3ccccc3[nH]c12)Nc1ccc(C(=O)O)cc1", "READOUT_LABEL": "TGI", "VALUE": "> 100 µM"}
{"MOLECULE": "CSc1ccc(/C=C2\\N=C(c3ccccc3)N(c3nc4cc(C)c(C)cc4s3)C2=O)cc1", "READOUT_LABEL": "TGI", "VALUE": "75.8 µM"}
{"MOLECULE": "Nc1nc2c(ncn2Cc2ccccc2CO)c(=O)[nH]1", "READOUT_LABEL": "TGI", "VALUE": "> 100 µM"}
{"MOLECULE": "CCCCCCCCn1ccc2cc(NC(=O)Cn3cc(CN4CCCCC4)nn3)ccc21", "READOUT_LABEL": "TGI", "VALUE": "3.43 µM"}
{"MOLECULE": "CC(=O)OC1COC(N2C(=O)C(=O)c3cc(Br)ccc32)C(OC(C)=O)C1OC(C)=O (configuration not stated)", "READOUT_LABEL": "TGI", "VALUE": "> 100 µM"}
{"MOLECULE": "CC(C)(CCCCC(C)(C)[N+](C)(C)C)[N+](C)(C)C", "READOUT_LABEL": "TGI", "VALUE": "> 100 µM"}
{"MOLECULE": "COC1OC(COC(=O)c2cc(O)c(O)c(O)c2)C(OC(=O)c2cc(O)c(O)c(O)c2)C(OC(=O)c2cc(O)c(O)c(O)c2)C1OC(=O)c1cc(O)c(O)c(O)c1 (configuration not stated)", "READOUT_LABEL": "TGI", "VALUE": "26.8 µM"}
{"MOLECULE": "O=C(NCCNCCCNC(=O)c1cc(-c2ccccc2)nc2ccccc12)c1cccc(OCc2ccccc2)c1OCc1ccccc1", "READOUT_LABEL": "TGI", "VALUE": "3.1 µM"}
{"MOLECULE": "COc1ccc2nc3cc(Cl)ccc3c(Sc3ccc([N+](=O)[O-])cc3)c2c1", "READOUT_LABEL": "TGI", "VALUE": "> 100 µM"}
{"MOLECULE": "COc1ccccc1NC(=O)c1nc2ccc([N+](=O)[O-])cc2nc1C", "READOUT_LABEL": "TGI", "VALUE": "> 100 µM"}
{"MOLECULE": "CCOc1cccc(-c2nc(N)nc(Nc3ccccc3SSc3ccccc3Nc3nc(N)nc(-c4cccc(OCC)c4)n3)n2)c1", "READOUT_LABEL": "TGI", "VALUE": "> 100 µM"}
{"MOLECULE": "CC(=O)C1=C(C)N(c2ccc(C)cc2)C2(O)C3=C(C(=O)c4ccccc4C3=O)C(O)=CC12Cl (configuration not stated)", "READOUT_LABEL": "TGI", "VALUE": "> 100 µM"}
{"MOLECULE": "COC(=O)/C=C/C1(O)C=CC(=O)C=C1", "READOUT_LABEL": "TGI", "VALUE": "3.78 µM"}
{"MOLECULE": "CC(=O)NC1C(OCc2ccccc2)OC(COC(=O)CCCCCCCCCCNc2ccc([N+](=O)[O-])c3[nH]c4ccccc4c(=O)c23)C(O)C1OC(C)C(=O)NC(C)C(=O)NC(CCC(N)=O)C(=O)OCc1ccccc1 (configuration not stated)", "READOUT_LABEL": "TGI", "VALUE": "> 100 µM"}
{"MOLECULE": "O=C(O)CC(Sc1ccccc1)c1ccccc1 (configuration not stated)", "READOUT_LABEL": "TGI", "VALUE": "> 100 µM"}
{"MOLECULE": "O=C1c2cc([N+](=O)[O-])ccc2-c2ccc3c4ccc5c6c(ccc(c7ccc1c2c73)c64)C(=O)c1cc([N+](=O)[O-])ccc1-5", "READOUT_LABEL": "TGI", "VALUE": "> 100 µM"}
